Task for the reader: assign each of the following compounds its reported Emax.
- targetOrTestSystem: human cannabinoid CB2 receptor (Homo sapiens, UniProt P34972)
- Construct: expressed in transfected cells; host or cells: Saccharomyces cerevisiae strain MMY23 (expresses a chimeric Gpa1/human Galpha-i3 G-protein alpha subunit)
- Sequence (P34972 whole entry): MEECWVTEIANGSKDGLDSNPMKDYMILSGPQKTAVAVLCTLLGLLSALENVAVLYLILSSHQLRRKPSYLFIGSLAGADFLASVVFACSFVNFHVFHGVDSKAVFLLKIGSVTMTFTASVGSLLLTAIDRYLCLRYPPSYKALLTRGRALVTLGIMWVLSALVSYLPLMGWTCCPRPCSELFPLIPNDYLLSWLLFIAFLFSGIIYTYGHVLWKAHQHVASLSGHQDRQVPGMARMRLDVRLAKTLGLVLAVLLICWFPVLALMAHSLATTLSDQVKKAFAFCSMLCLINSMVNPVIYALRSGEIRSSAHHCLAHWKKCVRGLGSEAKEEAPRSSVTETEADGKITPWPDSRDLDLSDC
- protocol: Cannabinoid CB2 receptor agonist activity, yeast reporter assay
- Format: cell-based
- runParameters: read-out: efficacy (Emax) at the cloned human cannabinoid CB2 receptor

Recorded Emax of O=C(NCc1ccc(F)cc1)c1cnc(Nc2ccc(Cl)cc2Cl)nc1C(F)(F)F , please. > 50%

Consider the compound shown here: N#Cc1ccc(CNC(=O)c2cnc(Nc3ccc(Cl)cc3Cl)nc2C(F)(F)F)cc1 What is its recorded Emax? < 50%

Returns the measured Emax for the input compound. Input: O=C(NCc1ccc(F)cc1Cl)c1cnc(Nc2cccc(Cl)c2)nc1C(F)(F)F < 50%

Value lookup for Emax; key = O=C(NCc1ccnc(F)c1)c1cnc(Nc2cc(Cl)ccc2Cl)nc1C(F)(F)F > 50%

What does the record list as Emax for O=C(NCc1ccc(F)cc1)c1cnc(Nc2cccc(Cl)c2F)nc1C(F)(F)F ? > 50%

Using the record for O=C(NCc1ccncc1)c1cnc(Nc2cc(Cl)ccc2Cl)nc1C(F)(F)F , report its Emax. > 50%

# lookup: Emax of CN(Cc1ccccc1)C(=O)c1cnc(Nc2cccc(Cl)c2Cl)nc1C(F)(F)F > 50%

Look at this compound and give its reported Emax. O=C(NCc1ccccc1)c1cnc(Nc2cccc(Cl)c2)nc1C(F)(F)F > 50%

What value of measured Emax is listed for O=C(NCc1ccncc1)c1cnc(Nc2cccc(Cl)c2Cl)nc1C(F)(F)F ? > 50%

Quick one: Emax for O=C(NCc1ccncc1)c1cnc(Nc2cccc(F)c2)nc1C(F)(F)F ? > 50%

// query Emax value for entry COc1ccc(Nc2ncc(C(=O)NCc3ccccc3)c(C(F)(F)F)n2)cc1 < 50%

Suppose we examine the compound O=C(NCc1ccc(F)cc1F)c1cnc(Nc2cccc(Cl)c2)nc1C(F)(F)F ; what Emax value has been reported? > 50%

Which Emax value is on record for O=C(NCc1ccncc1)c1cnc(Nc2c(Cl)cccc2Cl)nc1C(F)(F)F ? < 50%

Would you mind telling me what Emax value was observed for O=C(NCc1ccc(F)c(F)c1)c1cnc(Nc2cccc(Cl)c2)nc1C(F)(F)F ? > 50%

Look at this compound and give its reported Emax. O=C(NCc1ccc(F)cc1)c1cnc(Nc2ccc(Cl)c(Cl)c2)nc1C(F)(F)F > 50%

Consider the compound O=C(NCc1ccnc(F)c1)c1cnc(Nc2cccc(Cl)c2Cl)nc1C(F)(F)F and give its measured Emax. > 50%

Returns the measured Emax for the input compound. Input: CC(C)(C)c1ccc(CNC(=O)c2cnc(Nc3cccc(Cl)c3)nc2C(F)(F)F)cc1 < 50%

Quick one: Emax for O=C(NCc1ccncc1)c1cnc(Nc2cccc(Br)c2)nc1C(F)(F)F ? > 50%
